Attribute: pIC50
# Test system: Human immunodeficiency virus 1
# PROCEDURE SUMMARY: Antiviral activity against X4 tropic HIV1 RF infected in human PBMC assessed as inhibition of p24 antigen production after 2 hrs by ELISA
# Type: functional, organism-based
# SETUP CONDITIONS: Human immunodeficiency virus 1, RF
pIC50: −log10 of the molar value.
OUTCOME MEASURE: pIC50

INSERT INTO measurements (compound, assay_result) VALUES
  ('Cc1cc(C)c(Nc2ccnc(Nc3ccc(C#N)cc3)n2)c(C)c1 [DAPIVIRINE]', 8.83),
  ('C[C@H](Cn1cnc2c(N)ncnc21)OCP(=O)(O)O [TENOFOVIR ANHYDROUS]', 5.80),
  ('CC(C)=CCOc1cc(NC(=S)c2ccoc2C)ccc1Cl [UC 781]', 8.04);

###

Attribute: IC50
# Tested on: Human immunodeficiency virus 1
# PROCEDURE SUMMARY: Antiviral activity against R5 tropic HIV1 YU.2 infected in human PBMC assessed as inhibition of p24 antigen production after 2 hrs by ELISA
# Format: functional, organism-based
# SETUP CONDITIONS: Human immunodeficiency virus 1, YU.2, 2 h
OUTCOME MEASURE: IC50 (nM)

INSERT INTO assay_data (molecule, target_entity, assay_result) VALUES
  ('CC(C)=CCOc1cc(NC(=S)c2ccoc2C)ccc1Cl', 'Human immunodeficiency virus 1', 11.2),
  ('Cc1cc(C)c(Nc2ccnc(Nc3ccc(C#N)cc3)n2)c(C)c1', 'Human immunodeficiency virus 1', 1.11),
  ('C[C@H](Cn1cnc2c(N)ncnc21)OCP(=O)(O)O [TENOFOVIR ANHYDROUS]', 'Human immunodeficiency virus 1', 884);
